Recorded measurements of cytotoxicity at 70.5 h, one per entry
Assay summary: Human HepG2 cell viability assay in 384 well format
Assay type: toxicity, cell-based
Set-up: dose 125 nL, time 70.5 hour; concentration not given beside the values
Condition label: HepG2 cells, read-out: Inhibition

{"Molecule": "CN1C(=O)C2(CC(=O)Nc3c2cnn3C(C)(C)C)c2c(Cl)cccc21 (centres undefined)", "cytotoxicity at 70.5 h": "-19.1%"}
{"Molecule": "O=C(O)[C@]12CCCN(Cc3nccs3)[C@@H]1CCN(c1cnccn1)C2", "cytotoxicity at 70.5 h": "-5.49%"}
{"Molecule": "CNC(=O)Nc1cc(-c2ccc(Br)cc2)nn1CCO", "cytotoxicity at 70.5 h": "-0.486%"}
{"Molecule": "CC(C)c1nc(CN2CCCC2Cn2cccn2)no1 (centres undefined)", "cytotoxicity at 70.5 h": "-2.93%"}
{"Molecule": "CC(C)CN1CC(C(=O)NCc2ccnc(-n3cccn3)c2)CC1=O (centres undefined)", "cytotoxicity at 70.5 h": "12.8%"}
{"Molecule": "Nc1nc2c(c(N3CCN(C(=O)c4cccs4)CC3)n1)CCCC2", "cytotoxicity at 70.5 h": "-2.27%"}
{"Molecule": "Cc1nnc(N2C[C@@H]3CCCO[C@@H]3[C@H](N3CCCC3=O)C2)s1", "cytotoxicity at 70.5 h": "-9.55%"}
{"Molecule": "CCNC(=O)C1(Cc2cc(-c3ccccc3)no2)CCCN(C(C)C)C1 (centres undefined)", "cytotoxicity at 70.5 h": "-6.54%"}
{"Molecule": "CCC(CO)N(Cc1cccc(O)c1)Cc1ccccc1C (centres undefined)", "cytotoxicity at 70.5 h": "-5.23%"}
{"Molecule": "Cc1ncc(CNCC(=O)NCC(F)(F)F)n1-c1ccccc1", "cytotoxicity at 70.5 h": "-5.37%"}
{"Molecule": "CCc1cc(C(=O)NCC2CCN(Cc3cccc(C#N)c3)C2)on1 (centres undefined)", "cytotoxicity at 70.5 h": "-1.72%"}
{"Molecule": "CC(C)(C)c1nc(CN2CCCC(Cn3cncn3)C2)no1 (centres undefined)", "cytotoxicity at 70.5 h": "-13.7%"}
{"Molecule": "NCC(=O)N1CCCCC1c1ccc(F)cc1 (centres undefined)", "cytotoxicity at 70.5 h": "-2.07%"}
{"Molecule": "O=C(Nc1nnn[nH]1)c1cc(-c2ccc(Br)s2)n[nH]1", "cytotoxicity at 70.5 h": "-3.48%"}
{"Molecule": "CSC(C)CCN1CCCn2nc(CNC(=O)C3CCC3)cc2C1 (centres undefined)", "cytotoxicity at 70.5 h": "0.861%"}
{"Molecule": "COc1ccc(CN(C)[C@@H]2CN(C(=O)c3cccnc3)C[C@H]2O)cc1", "cytotoxicity at 70.5 h": "2.56%"}
{"Molecule": "Cc1ccc(Sc2ccc(CN3CCC4(CC3)NCCNC4=O)o2)cc1", "cytotoxicity at 70.5 h": "1.08%"}
{"Molecule": "CN(Cc1csc(-c2cccs2)n1)Cc1cccnc1N", "cytotoxicity at 70.5 h": "-14.6%"}
{"Molecule": "CCS(=O)(=O)N1CCC2(CC(=O)N(c3ccccc3C)C2)C1 (centres undefined)", "cytotoxicity at 70.5 h": "21.9%"}
{"Molecule": "Cc1nc(-c2ccc(Cl)s2)sc1C(=O)O", "cytotoxicity at 70.5 h": "1.47%"}
{"Molecule": "O=c1c2cn[nH]c2nc(SCCN2CCCC2)n1-c1ccccc1", "cytotoxicity at 70.5 h": "-6.58%"}
{"Molecule": "O=C(COc1coc(CN2CCCCC2)cc1=O)c1ccc(Cl)cc1", "cytotoxicity at 70.5 h": "-23.2%"}
{"Molecule": "CCOc1ccc(C(C)Nc2ncnc3c2CCNC3)cc1OCC (centres undefined)", "cytotoxicity at 70.5 h": "-12%"}
{"Molecule": "O=C(CCC(=O)N1CCNC(=O)C1c1cccc(F)c1)NC1CCCC1 (centres undefined)", "cytotoxicity at 70.5 h": "-6.2%"}
{"Molecule": "Cc1cc(C(F)(F)F)cc(=O)n1CCn1cc(Cl)cn1", "cytotoxicity at 70.5 h": "-11.3%"}
{"Molecule": "Cc1cnc(C(C)(C)NC(=O)NCc2ccon2)s1", "cytotoxicity at 70.5 h": "-9.99%"}
{"Molecule": "Cc1ccc(C(=O)N(C)CC(=O)Nc2cccc(C)n2)cn1", "cytotoxicity at 70.5 h": "-6.04%"}
{"Molecule": "Cc1ccc(S(=O)(=O)N2CCC(c3n[nH]cc3C(=O)N(C)C)CC2)cc1", "cytotoxicity at 70.5 h": "8.18%"}
{"Molecule": "Cc1cc(C)n(CC(C)CNC(=O)NCc2c(C)cc(C)[nH]c2=O)n1 (centres undefined)", "cytotoxicity at 70.5 h": "-10.1%"}

* * *

Assay summary: Human HepG2 cell viability assay in 384 well format
Assay type: toxicity, cell-based
Design: dose 125 nL, time 70.5 hour; concentration not given beside the values
Condition label: HepG2 cells, read-out: Inhibition
Recorded endpoint: cytotoxicity at 70.5 h (%)

{"Compound": "CN1CCc2nc(C3CCN(C(=O)CCC4CCCC4)CC3)ncc2C1", "Assay result": -16.6}
{"Compound": "CCOc1ccc(NC(=O)c2oc(CC)cc2C)cc1CO", "Assay result": -3.11}
{"Compound": "Cc1ccccc1CN1CCCN(C(=O)c2ccn(C)c(=O)c2)CC1", "Assay result": -1.43}
{"Compound": "CC(C)N(C)Cc1cnc2n1CCN(C(=O)Cc1ccccn1)C2", "Assay result": 13.5}
{"Compound": "CCOc1cc(NC(=O)N(C)Cc2ncnn2C)ccc1C", "Assay result": 20.6}
{"Compound": "Cc1cnc(N2CCn3c(CN4CCOCC4)nnc3C2)nc1", "Assay result": 21.1}
{"Compound": "CCN(CC)S(=O)(=O)N(C)Cc1ccncc1", "Assay result": -8.49}
{"Compound": "CNC(=O)CS(=O)(=O)Cc1coc(-c2ccc(F)cc2)n1", "Assay result": -9.1}
{"Compound": "COCCc1noc(C2CCN(S(=O)(=O)c3cccs3)CC2)n1", "Assay result": 10.6}
{"Compound": "Cn1c(=O)n(C)c2cc(NS(=O)(=O)Cc3cccc(F)c3)ccc21", "Assay result": -6.9}
{"Compound": "COc1ccccc1C(=O)Nc1ccc([C@@H](O)[C@H]2COCC(=O)N2)cc1", "Assay result": -4.28}
{"Compound": "CC1CCN(C(=O)c2ccc(N(C)Cc3cnn(C)c3)nc2)CC1", "Assay result": -7.81}
{"Compound": "Cn1cc(CNCC2(O)CCCN(Cc3ccc(F)c(F)c3)C2=O)cn1 (stereo not drawn)", "Assay result": -3.67}

* * *

Assay summary: Human HepG2 cell viability assay in 384 well format
Assay type: toxicity, cell-based
Set-up: dose 125 nL, time 70.5 hour; concentration not given beside the values
Condition label: HepG2 cells, read-out: Inhibition
Recorded endpoint: cytotoxicity at 70.5 h (%)

{"Molecule": "Cc1ccc(C(=O)N2CCN(Cc3ccsc3)CC2)n1C", "Assay result": -7.84}
{"Molecule": "CCc1nc(CN2CCCC2C(=O)NC)cs1 (stereo unspecified)", "Assay result": -0.35}
{"Molecule": "CCS(=O)(=O)N(C)C1CCN(C(=O)c2cccc(Cl)c2)CC1", "Assay result": -4.92}
{"Molecule": "CC(CNC(=O)c1cccc(-n2cccn2)c1)Cn1ccnc1 (stereo unspecified)", "Assay result": 2.48}
{"Molecule": "CS(=O)(=O)N[C@H]1CN(C(=O)c2cscn2)[C@@H]2CCCO[C@H]12", "Assay result": -8.41}
{"Molecule": "CCC(CC(=O)NS(=O)(=O)C(C)C)c1ccccc1 (stereo unspecified)", "Assay result": 11.1}

* * *

Assay summary: Human HepG2 cell viability assay in 384 well format
Format: toxicity, cell-based
Parameters: dose 125 nL, time 70.5 hour; concentration not given beside the values
Condition label: HepG2 cells, read-out: Inhibition

{"Compound": "CN(Cc1cccs1)c1cc(N2CCCC2CO)ncn1 (stereo not drawn)", "cytotoxicity at 70.5 h": "-1.74%"}
{"Compound": "CCSc1cc(C(=O)N(CC(F)F)C(C)C)ccn1", "cytotoxicity at 70.5 h": "-3.2%"}
{"Compound": "COc1ccc(NC(=O)CCC(C)C)c(N2CCN(C(C)=O)CC2)n1", "cytotoxicity at 70.5 h": "-13.6%"}
{"Compound": "COc1cc(C2SCC(=O)Nc3[nH]ncc32)c(OC)c2c1OCO2 (stereo not drawn)", "cytotoxicity at 70.5 h": "-12.7%"}
{"Compound": "CCc1ncc(CN2CCc3nc4sc(C)cc4c(=O)n3CC2)cn1", "cytotoxicity at 70.5 h": "17.6%"}
{"Compound": "O=C(C1CC1)N1CCc2c(ncnc2N2CCN3CCCC3C2)C1 (stereo not drawn)", "cytotoxicity at 70.5 h": "26%"}
{"Compound": "O=c1[nH]c2c(c(=O)n1C1CCCCC1)CCC2Nc1ccccc1 (stereo not drawn)", "cytotoxicity at 70.5 h": "6.54%"}
{"Compound": "COCC[C@]1(O)CCN(CC(=O)NCc2ccccc2C)C[C@H]1C", "cytotoxicity at 70.5 h": "-2.23%"}
